Assay system Hepatocyte growth factor receptor (Homo sapiens, UniProt P08581); read-out recorded as pIC50.
pIC50: −log10 of the molar value.
QUANTITY KIND: pIC50

(1) O=C(Nc1ccc(Oc2ccnc3[nH]ccc23)cc1)c1nn(-c2ccc(Cl)c(C(F)(F)F)c2)ccc1=O
(2) Cc1ccc(-n2nc(C(=O)Nc3ccc(Oc4ncnc5[nH]ccc45)cc3)c(C)cc2=O)cc1
(3) O=C(Nc1ccc(Oc2ccnc3[nH]ccc23)cc1)c1nn(-c2ccc(Cl)c(F)c2)ccc1=O
-- ask Would you mind ranking these compounds by ascending pIC50? Order the labels as requested and list them.
-- reply 2, 3, 1
(2: 4.57, 3: 6.77, 1: 7.14)

Reference for the values: ChEMBL document CHEMBL4138148
